assay: DRUGMATRIX: Interleukin IL-1 radioligand binding (ligand: [125I] interleukin 1beta); type: cell membranes, Membrane; conditions: nih3t3; Not Active = under 50% inhibition at 10 µM
recorded-metric: IC50

Use the examples below as a reference point.
COC(=O)Nc1nc2ccc(C(=O)c3cccs3)cc2[nH]1 | Not Active
Nc1ccn([C@@H]2O[C@H](CO)[C@@H](O)[C@@H]2O)c(=O)n1 | Not Active
CCCCOc1cc(CC2CNC(=O)N2)ccc1OC (stereo not drawn) | Not Active
CC(C)NNC(=O)c1ccncc1 | Not Active

Q: IC50 for CO[C@H]1/C=C/O[C@@]2(C)Oc3c(C)c(O)c4c(O)c(c(/C=N/N5CCN(C6CCCC6)CC5)c(O)c4c3C2=O)NC(=O)/C(C)=C\C=C\[C@H](C)[C@H](O)[C@@H](C)[C@@H](O)[C@@H](C)[C@H](OC(C)=O)[C@@H]1C ?
Ans: Not Active

* * *

assay: DRUGMATRIX: Sigma2 radioligand binding (ligand: [3H] Ifenprodil); assay type: cell membranes, Rattus norvegicus, Wistar, Brain, Membrane; details: Not Active = under 50% inhibition at 10 µM
recorded-metric: Ki

# example entries with known answers
NCCCC(O)(P(=O)(O)O)P(=O)(O)O | Not Active
Cc1cccc(C)c1OCC(C)N (stereo not given) | Not Active
CCN(CC)CCOCCC1=CCC2CC1C2(C)C (stereo not given) | Not Active
O=C1O[C@H]([C@@H](O)CO)C(O)=C1O | Not Active
CNC1(c2ccccc2Cl)CCCCC1=O (stereo not given) | Not Active
N#Cc1ccc(C(c2ccc(C#N)cc2)n2cncn2)cc1 | Not Active
CC(C)Cc1ccc([C@@H](C)C(=O)O)cc1 [(R)-IBUPROPHEN] | Not Active
O.O.O.O.O.O.[Cl-].[Cl-].[Sr+2] [STRONTIUM CHLORIDE HEXAHYDRATE] | Not Active
COc1cc([C@@H]2c3cc4c(cc3[C@@H](O[C@@H]3O[C@@H]5CO[C@@H](C)O[C@H]5[C@H](O)[C@H]3O)[C@H]3COC(=O)[C@H]23)OCO4)cc(OC)c1O [ETOPOSIDE] | Not Active
C#C[C@]1(OC(C)=O)CC[C@H]2[C@@H]3CCC4=C[C@@H](OC(C)=O)CC[C@@H]4[C@H]3CC[C@@]21C [ETHYNODIOL DIACETATE] | Not Active

Q: Recorded Ki for CN/C(=N\CCSCc1nc[nH]c1C)NC#N , please?
Ans: Not Active

Q: What value of measured Ki is listed for C[C@@H]1CC[C@@]2(OC1)O[C@H]1[C@@H](O)[C@H]3[C@@H]4CC[C@H]5C[C@@H](O[C@@H]6O[C@H](CO)[C@H](O[C@@H]7O[C@H](CO)C(O)[C@H](O[C@@H]8OC[C@@H](O)[C@H](O)[C@H]8O)[C@H]7O[C@@H]7O[C@H](CO)[C@H](O)[C@H](O[C@@H]8O[C@H](CO)[C@@H](O)[C@H](O)[C@H]8O)[C@H]7O)[C@H](O)[C@H]6O)[C@H](O)C[C@]5(C)[C@H]4CC[C@]3(C)[C@H]1[C@@H]2C (stereo not given in full) ?
Ans: Not Active

Q: Suppose we examine the compound CC1(C)S[C@@H]2[C@H](NC(=O)[C@H](N)c3ccccc3)C(=O)N2[C@H]1C(=O)O ; what Ki value has been reported?
Ans: Not Active

Q: Need Ki, item C=CCc1ccc(O)c(OC)c1
Ans: Not Active

Q: Data request, read-out Ki, for C[C@H]1O[C@@H](n2cc(F)c(=O)[nH]c2=O)[C@H](O)[C@@H]1O
Ans: Not Active

The measurements presented in this section are drawn from ChEMBL document CHEMBL1909046.
